# Run description: in vitro
# Cond: human, CC50 HepG2+Gal
The reader will find reported CC50 at 72 h values listed item by item below.
Measured metric: CC50 at 72 h (µM)

>>> df
                                    molecule  experimental_value
 0   Cc1nc(NCCCc2ccccc2)c2cc(Br)ccc2n1 [18c]                 9.7
 1  Cc1ccc(CCNc2nc(C)nc3ccc(I)cc23)cc1 [15d]                 6.6
 2  Cc1nc(NCCc2ccc(Cl)cc2)c2cc(I)ccc2n1 [11d]                 3.3
 3       Cc1nc(NCCCc2ccccc2)c2ccccc2n1 [18a]                 2.6
 4  Cc1nc(NCCc2ccc3ccccc3c2)c2cc(Br)ccc2n1 [17c]                 1.8
 5    Cc1nc(NCCCc2ccccc2)c2cc(I)ccc2n1 [18d]                  13
 6   COc1ccc2nc(C)nc(NCCCc3ccccc3)c2c1 [18b]                  11
 7  CCc1ccc(CCNc2nc(C)nc3ccc(I)cc23)cc1 [16d]                 5.3
 8  Cc1nc(NCCc2ccc(OC(F)(F)F)cc2)c2cc(I)ccc2n1 [13d]                 2.2
 9  Cc1nc(NCCc2ccc3ccccc3c2)c2cc(I)ccc2n1 [17d]                 5.2
10           Cc1nc(NCCc2ccccc2)c2cc(I)ccc2n1                 5.1
